- Tested on: A498 renal
- method notes: NCI-60 one-dose screen, 48 h
- measurement setup: 10 µM unless noted
About 83,000 compounds went through this panel and 20% of them were active in at least one assay; those are over-represented in the sample as a whole. Activity calls are given as the source filed them. Rule for the calls: active = growth percent below 10; inactive = the rest.
Your answer must be one of the following: True = active, False = inactive

Assay result, entry Clc1ccc(C2CC(c3cccc(Nc4ccncc4)c3)=NN2c2ccccc2)cc1 (centres undefined) — outcome?
False

Assay result, entry CC1(c2ccccc2)NC(=O)N(CC(=O)Nc2cccc(I)c2)C1=O (centres undefined) — outcome?
False

Assay result, entry COc1ccc(C(O)c2cc3c(N)c(C(=O)Nc4cccc(OC)c4)sc3nc2C)cc1 (centres undefined) — outcome?
True

Assay result, entry C#Cc1cccc(NC(=O)Nc2cccc(N=C=S)c2)c1 — outcome?
False

Assay result, entry NC(=O)c1ccc[n+](CC(=O)N2CCN(c3cc4c(cc3F)c(=O)c(C(=O)O)cn4C3CC3)CC2)c1 — outcome?
False

Assay result, entry CC(C)(C)OC(=O)N1C/C(=C\c2ccoc2)C(=O)/C(=C/c2ccoc2)C1 — outcome?
False

Assay result, entry Clc1cc(Cl)cc(N2N=C(c3cccc(Nc4ccncc4)c3)CC2c2ccc3c(c2)OCO3)c1 (centres undefined) — outcome?
False

Assay result, entry Cc1c2c(cc[n+]1Cc1ccc(F)cc1)c1ccc(OCc3cccc(F)c3)cc1n2Cc1cccc(F)c1 — outcome?
True

Assay result, entry CN1CCN(Cc2ccc(NC(=O)c3cncc(C#Cc4cnccc4C(F)(F)F)c3)cc2C(F)(F)F)CC1 — outcome?
False

###

- System: OVCAR-8 ovarian
- method notes: NCI-60 one-dose screen, 48 h
- measurement setup: 10 µM unless noted
About 83,000 compounds went through this panel and 20% of them were active in at least one assay; those are over-represented in the sample as a whole. Active and inactive are the calls of the source. Rule for the calls: active = growth percent below 10; inactive = the rest.
Your answer must be one of the following: active, inactive

{"columns": ["molecule", "test target", "qualitative label"],
 "data": [
  ["Fc1ccc(C2CC(c3cccc(Nc4ccncc4)c3)=NN2c2cc(Cl)cc(Cl)c2)cc1 (centres undefined)", "OVCAR-8 ovarian", "active"],
  ["COc1ccc(/C=N/NC(=O)c2cccc3cc[nH]c23)cc1O", "OVCAR-8 ovarian", "inactive"],
  ["COC(=O)Nc1ccc(NC(=O)OC)cc1", "OVCAR-8 ovarian", "inactive"],
  ["COc1cc(-c2cc(=O)oc3cc(O)ccc23)cc(OC)c1OC", "OVCAR-8 ovarian", "inactive"],
  ["COc1cc2nc(-c3ccc(-c4nn[nH]n4)cc3)[nH]c(=O)c2cc1OC", "OVCAR-8 ovarian", "inactive"]
]}

Assay result, entry COC(=O)C(c1ccccc1)C(CC(=O)c1ccccc1)c1ccccc1 (centres undefined) — outcome?
inactive

Assay result, entry O=C(N/N=C/c1ccc(F)cc1)c1ccccc1Nc1cccc(C(F)(F)F)c1 — outcome?
inactive

Assay result, entry CNC(=O)NCC1OC(n2cnc3c(NC(=O)Nc4ccccc4)ncnc32)C(O[Si](C)(C)C(C)(C)C)C1O[Si](C)(C)C(C)(C)C (centres undefined) — outcome?
inactive

Assay result, entry C=C(C)[C@@H]1CC[C@]2(C(=O)O)CC[C@]3(C)[C@H](CC[C@@H]4[C@@]5(C)C[C@@H](CC#Cc6ccc(Br)cc6)C(=O)C(C)(C)[C@@H]5CC[C@]43C)[C@@H]12 — outcome?
inactive

###

- System: HT29 colon
- method notes: NCI-60 one-dose screen, 48 h (100 = growth as untreated, 0 = no growth, -100 = all killed)
- measurement setup: 10 µM unless noted
Compounds without any hit were thinned out: in the full panel of roughly 83,000, 20% have a hit.
Property: growth; scope: individual compounds
// note: answer is a bare numeric in %

Known results for compounds:
{"columns": ["smiles structure", "readout label", "scale unit", "experimental value"],
 "data": [
  ["O=C(Nc1ccc(Cl)cc1)Nc1ccc(Cl)c(Cl)c1", "growth", "%", 28.6],
  ["CC(C)Sc1nc(NN)c(C#N)c(-c2ccccc2)n1", "growth", "%", 111],
  ["COC(=O)N[C@H]1CCc2cc(OC)c(OC)c(OC)c2-c2ccc(SC)c(=O)cc21", "growth", "%", 2.35],
  ["COc1ccc(C(=O)c2cc(C)c(OC)c(C)c2)c(OC)c1O", "growth", "%", 26.6]
]}

Shift focus to the following entry.
Record summary for NC(=O)c1cccc(-n2ccc3cc(NC(=O)Nc4cc(C(F)(F)F)cc(C(F)(F)F)c4)ccc32)n1 : reported growth = 52.6

###

- System: UACC-62 melanoma
- method notes: NCI-60 one-dose screen, 48 h
- measurement setup: 10 µM unless noted
- Procedure: Growth inhibition of the UACC-62 human tumor cell line is measured as a screen for anti-cancer activity. Cells are grown in 96 well plates and exposed to the test compound for 48 hours. Compounds are tested at a single concentration, which is 10^-5 M for most compounds. The reported endpoint is percent growth (GI% or GIPRCNT), where numbers from 0 - 100% represent growth inhibition, and numbers from -100% - 0 represent cell death. For example, a value of 40 represents 60% growth inhibition. […]
The panel holds about 83,000 compounds, 20% with a hit somewhere; the sample as a whole holds those more often. The source made the active and inactive calls. The calls were made as follows: active = growth percent below 10; inactive = the rest.
Your answer must be one of the following: active, inactive

{"columns": ["molecule", "qualitative label"],
 "data": [
  ["O=C(O)CCCCCCCCCCCCCCC(=O)O", "inactive"]
]}

Assay result, entry O=C1C(=O)c2c(nc3ncccn23)-c2ccccc21 — outcome?
active

Assay result, entry Cc1c([N+](=O)[O-])cc(C(C)(C)C)cc1[N+](=O)[O-] — outcome?
inactive

Assay result, entry C=C1C(=O)O[C@H]2[C@H]1CC/C(CNC(=O)/C=C/c1ccc(Br)cc1)=C\CC[C@@]1(C)O[C@@H]21 — outcome?
active

Assay result, entry CC(=O)CCSc1ccc(OC(C)=O)cc1 — outcome?
inactive

Assay result, entry COc1ccccc1N1CCN(C(=O)c2ccc3nc(NC(=O)c4ccc(NCCc5ccccc5)c([N+](=O)[O-])c4)sc3c2)CC1 — outcome?
inactive

Assay result, entry COc1cc(C2CC(c3cccc(Nc4ccncc4)c3)=NN2c2ccc(Cl)cc2)cc(OC)c1OC (configuration not stated) — outcome?
inactive

Assay result, entry COc1ccc(-c2nc(N/N=C/c3ccco3)nc(N3CCOCC3)c2C#N)cc1 — outcome?
inactive

Assay result, entry c1ccc(C2CC(c3cccc(Nc4ccncc4)c3)=NN2c2ccccc2)cc1 (configuration not stated) — outcome?
inactive

Assay result, entry COc1cc(-c2cc(=O)oc3cc(O)ccc23)c(OC)c2c1OCO2 — outcome?
inactive

Assay result, entry CCCCCN1C=C/C(=C\C(=O)N(C)c2cccc3ccccc23)c2ccccc21 — outcome?
inactive

###

Property: growth; scope: individual compounds
- Test system: HCC-2998 colon
- method notes: NCI-60 one-dose screen, 48 h (100 = growth as untreated, 0 = no growth, -100 = all killed)
- measurement setup: 10 µM unless noted
About 83,000 compounds went through this panel and 20% of them were active in at least one assay; those are over-represented in the sample as a whole.
// note: answer is a bare numeric in %

Known results for compounds:
{"columns": ["compound", "test target", "readout label", "experimental value"],
 "data": [
  ["O=C(NCCN1CCOCC1)OCc1nc2nc(Cl)nc(N3CCOCC3)c2[nH]1", "HCC-2998 colon", "growth", 77.8],
  ["c1ccc(-c2nn(-c3ccccc3)[n+](-c3ccccc3-c3ccccc3)n2)cc1", "HCC-2998 colon", "growth", 18.9],
  ["CC(=O)c1cc2c(N)c(C(=O)Nc3cncc4ccccc34)sc2nc1C", "HCC-2998 colon", "growth", 106],
  ["O=C1OC(=O)C2C1CC=CC2c1ccccc1 (stereo unspecified)", "HCC-2998 colon", "growth", 79.9],
  ["Nc1cc(N)c2cccnc2c1O", "HCC-2998 colon", "growth", 77.1]
]}

Record summary for CN1C2CCC1CN(c1cnc(C(=O)Nc3cc(F)cc4cccnc34)cn1)C2 : reported growth = 83.1

Record summary for CNC(=O)NCC1OC(n2cnc3c(NC(=O)Nc4ccccc4)ncnc32)C(O[Si](C)(C)C(C)(C)C)C1O[Si](C)(C)C(C)(C)C (stereo unspecified) : reported growth = -1.37

Record summary for O=C(CCN1CCCC1)Nc1ccc2c(NCc3ccc(F)cc3)c3ccccc3nc2c1 : reported growth = -32.5

Record summary for COc1ccc(/C=N/C2=C(C#N)C(c3ccccc3[N+](=O)[O-])c3ccc4ccccc4c3O2)cc1 (stereo unspecified) : reported growth = 106

###

- Test system: HT29 colon
- method notes: NCI-60 one-dose screen, 48 h (100 = growth as untreated, 0 = no growth, -100 = all killed)
- measurement setup: 10 µM unless noted
The panel holds about 83,000 compounds, 20% with a hit somewhere; the sample as a whole holds those more often.
readout label: growth (%)
// note: answer is a bare numeric in %

Known results for molecules:
{"columns": ["molecule", "growth (%)"],
 "data": [
  ["CC(=O)NCCCS(=O)(=O)O", 98.4],
  ["N#Cc1cc(-c2nc3ccccc3s2)c(=O)n(NS(=O)(=O)c2ccc(Cl)cc2)c1N", 109],
  ["CC1(C)CN(c2cnc(C(=O)Nc3cc(F)cc4cccnc34)cn2)CCN1", 47.1]
]}

The molecule CC(=O)c1cc2c(N)c(C(=O)Nc3cncc4ccccc34)sc2nc1C on HT29 colon: growth was 107

The molecule CNC(=O)NCC1OC(n2cnc3c(NC(=O)Nc4ccccc4)ncnc32)C(O[Si](C)(C)C(C)(C)C)C1O[Si](C)(C)C(C)(C)C (stereo not given) on HT29 colon: growth was -67.7

The molecule CCCCCCCCCCCCCCCCCCOc1ccccc1N on HT29 colon: growth was 92.5

The molecule COc1cccc(CNCCN2C(=O)c3ccc4c5c(ccc(c35)C2=O)C(=O)N(CCNCc2cccc(OC)c2)C4=O)c1 on HT29 colon: growth was 2.39

The molecule Nc1nc(SN=Nc2ccc(S(N)(=O)=O)cc2)c2[nH]cnc2n1 on HT29 colon: growth was 9.84

The molecule COc1cccc(NC(=O)c2cccc(-c3cc(=O)c4c(OC)c(OC)c(OC)cc4o3)c2)c1 on HT29 colon: growth was 50.8

The molecule O=C1/C(=C/c2ccc(O)cc2)COc2ccc(-c3ccccc3)cc21 on HT29 colon: growth was 27.1

The molecule C=C1C(=O)O[C@H]2[C@H]1CC/C(COC(=O)CCCc1c[nH]c3ccccc13)=C\CC[C@@]1(C)O[C@@H]21 on HT29 colon: growth was 21.7

The molecule Clc1ccc(N2N=C(c3cccc(Nc4ccncc4)c3)CC2c2ccc3c(c2)OCO3)cc1 (stereo not given) on HT29 colon: growth was 3.63

The molecule CC1=CC[C@@H]2CC[C@]3(C)[C@H](CC[C@@H]4[C@@]5(C)CCCNC(C)(C)[C@@H]5CC[C@]43C)[C@H]2[C@@H]1C on HT29 colon: growth was -55.2

The molecule Cc1[nH]n(C(=O)c2ccncc2)c(=O)c1N=Nc1ccc(F)c(Cl)c1 on HT29 colon: growth was 109

The molecule N/C(=N\N=C\c1cc2ccccc2s1)N/N=C/c1cc2ccccc2s1 on HT29 colon: growth was 108

The molecule C/C(=C(/c1ccccc1)c1ccc(OCC(O)CN2CCOCC2)cc1)c1ccccc1 (stereo not given) on HT29 colon: growth was 13.1

The molecule CN(C)CCCn1c2c(c3ccc(-c4ccn[nH]4)cc3c1=O)C(=O)c1ccccc1-2 on HT29 colon: growth was 15.5

The molecule COC(=O)Nc1nc2ccc(C(=O)c3cccc(I)c3)cc2[nH]1 on HT29 colon: growth was 2.12

The molecule O=C1NC(=O)C(=Cc2cn(Cc3ccccn3)c3ccccc23)C(=O)N1 on HT29 colon: growth was 111

The molecule N/C(=N\N=C\c1cc2ccccc2[nH]1)N/N=C/c1cc2ccccc2[nH]1 on HT29 colon: growth was 95.7

The molecule COc1cc2nc(Cc3ccc(C)cc3)[nH]c(=O)c2cc1OC on HT29 colon: growth was 107

The molecule COc1ccc(-c2nc(SC)nc(N3CCOCC3)c2C#N)cc1 on HT29 colon: growth was 92.3

The molecule COc1ccc(C(O)c2cc3c(N)c(C(=O)Nc4ccc(Br)cc4)sc3nc2C)cc1 (stereo not given) on HT29 colon: growth was -34.2

The molecule COc1ccc(C(=O)c2cc3c(N)c(C(=O)Nc4ccc(Br)cc4)sc3nc2C)cc1 on HT29 colon: growth was 74.9

The molecule COc1ccc(Cn2nc(-c3cc(OC)c(OC)c(OC)c3)c3c2CCc2cnoc2-3)cc1OC on HT29 colon: growth was 22

These entries and their values trace back to PubChem BioAssay (NCI).
